measured_target: SERT (Homo sapiens, UniProt P31645)
Sequence (P31645 whole entry): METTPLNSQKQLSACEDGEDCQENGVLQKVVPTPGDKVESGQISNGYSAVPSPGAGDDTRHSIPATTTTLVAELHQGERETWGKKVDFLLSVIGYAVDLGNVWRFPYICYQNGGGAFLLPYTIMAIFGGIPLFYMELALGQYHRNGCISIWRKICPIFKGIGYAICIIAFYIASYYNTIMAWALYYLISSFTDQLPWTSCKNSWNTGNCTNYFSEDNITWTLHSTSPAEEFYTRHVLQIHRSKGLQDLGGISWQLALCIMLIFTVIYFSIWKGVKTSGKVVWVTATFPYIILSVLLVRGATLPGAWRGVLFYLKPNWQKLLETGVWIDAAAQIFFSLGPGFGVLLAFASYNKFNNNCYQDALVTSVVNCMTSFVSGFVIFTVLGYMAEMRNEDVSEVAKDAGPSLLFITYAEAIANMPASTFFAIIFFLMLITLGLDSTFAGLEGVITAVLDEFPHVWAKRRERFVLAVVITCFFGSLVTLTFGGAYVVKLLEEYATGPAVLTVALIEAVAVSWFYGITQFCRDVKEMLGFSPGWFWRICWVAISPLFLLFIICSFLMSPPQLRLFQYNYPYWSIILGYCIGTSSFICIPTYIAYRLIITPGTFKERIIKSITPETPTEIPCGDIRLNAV
pKi: −log10 of the molar value.

| compound | pKi |
| --- | --- |
| CCN(CC)c1ccc(-c2cc[n+]3c(-c4ccccc4)c(N4CCCC4)n(CCCCCCC(=O)NCc4ccc5c(c4)CO[C@@]5(CCCN(C)C)c4ccc(F)cc4)c3c2)cc1 [PYR-C6-CIT, PyrAte-C6-(S)-citalopram] | 6.96 |

###

measured_target: YhDAT (Homo sapiens)
Construct: expressed in transfected cells
Sequence (Q01959 whole entry): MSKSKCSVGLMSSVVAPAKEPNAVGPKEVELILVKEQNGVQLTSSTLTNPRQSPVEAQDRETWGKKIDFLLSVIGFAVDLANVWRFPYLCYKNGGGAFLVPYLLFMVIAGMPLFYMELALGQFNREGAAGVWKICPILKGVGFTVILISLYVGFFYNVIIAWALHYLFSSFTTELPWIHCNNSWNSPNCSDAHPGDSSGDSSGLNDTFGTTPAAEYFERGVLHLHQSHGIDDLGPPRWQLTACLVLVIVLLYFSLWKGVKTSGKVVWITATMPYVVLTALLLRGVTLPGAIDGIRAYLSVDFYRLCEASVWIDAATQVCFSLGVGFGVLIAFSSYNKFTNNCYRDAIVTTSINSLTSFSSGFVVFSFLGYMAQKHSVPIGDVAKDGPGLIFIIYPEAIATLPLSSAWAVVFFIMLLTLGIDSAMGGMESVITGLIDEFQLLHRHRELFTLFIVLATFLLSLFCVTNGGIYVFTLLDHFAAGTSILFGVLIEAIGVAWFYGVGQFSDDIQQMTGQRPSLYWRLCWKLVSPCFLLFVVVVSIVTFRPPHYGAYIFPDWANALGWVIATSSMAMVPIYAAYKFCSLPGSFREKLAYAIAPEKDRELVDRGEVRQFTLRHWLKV
protocol_text: radioligand uptake inhibition assay ([3H]DA)
Type: cell-based
applied_conditions: HEK293 stably expressing YhDAT; 100 nM [3H]DA; mean and SD, N = 3-6; read-out: IC50, uptake inhibition at DAT (YhDAT)
pIC50: −log10 of the molar value.
measurement_label: pIC50

| molecule | measured_target | measurement_label | assay_value |
| --- | --- | --- | --- |
| CCN(CC)c1ccc(-c2cc[n+]3c(-c4ccccc4)c(N4CCCC4)n(CCCCCCC(=O)NCc4ccc5c(c4)CO[C@@]5(CCCN(C)C)c4ccc(F)cc4)c3c2)cc1 [PYR-C6-CIT, PyrAte-C6-(S)-citalopram] | YhDAT (Homo sapiens) | pIC50 | 5.69 |
| CCN(CC)c1ccc(-c2cc[n+]3c(-c4ccccc4)c(N4CCCC4)n(CCCC(=O)NCc4ccc5c(c4)CO[C@@]5(CCCN(C)C)c4ccc(F)cc4)c3c2)cc1 [PYR-C3-CIT, PyrAte-C3-(S)-citalopram] | YhDAT (Homo sapiens) | pIC50 | 5.45 |
